The measured values listed here are drawn from patent US11331314B2.

# targetSystem: human V2 receptor (Homo sapiens)
# Sequence (P30518 whole entry): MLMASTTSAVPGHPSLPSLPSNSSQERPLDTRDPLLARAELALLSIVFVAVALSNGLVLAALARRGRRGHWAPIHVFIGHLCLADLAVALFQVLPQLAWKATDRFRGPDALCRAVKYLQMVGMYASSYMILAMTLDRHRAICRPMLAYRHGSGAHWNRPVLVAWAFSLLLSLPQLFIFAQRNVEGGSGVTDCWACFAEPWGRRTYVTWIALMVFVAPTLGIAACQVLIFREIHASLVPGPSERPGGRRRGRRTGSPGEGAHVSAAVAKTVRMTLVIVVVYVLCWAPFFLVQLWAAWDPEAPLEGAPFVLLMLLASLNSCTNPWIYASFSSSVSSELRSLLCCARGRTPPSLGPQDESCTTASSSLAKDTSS
# assayNotes: Cellular in vitro assay for determining vasopressin receptor activity, V2 receptor cell line (CRE-luciferase)
# appliedConditions: CHO cell line transfected with the human V2 receptor; agonist [Arg8]-vasopressin at EC50 concentration; read-out: IC50 hV2
quantity: pIC50
Give only the number. pIC50 is defined as minus log10 of concentration in molar units.

Please look up its pIC50: O=c1n(Cc2nc(N3CCC(O)(C(F)(F)F)C3)n(-c3ccccc3Cl)n2)nc(-c2ccc(Cl)cc2)n1C[C@H](O)C(F)(F)F (single isomer, unassigned) [Example 14]
8.23

Please look up its pIC50: CN(C)c1nc(Cn2nc(-c3ccc(Cl)cc3)n(C[C@H](O)C(F)(F)F)c2=O)nn1-c1cccc(F)c1
8.09

Please look up its pIC50: O=C1CCC(CNc2nc(Cn3nc(-c4ccc(Cl)cc4)n(C[C@H](O)C(F)(F)F)c3=O)nn2-c2ccccc2Cl)N1 (single isomer, unassigned) [Example 65]
8.19

Please look up its pIC50: O=c1n(Cc2nc(N3CCNC(C(F)(F)F)C3)n(-c3ccccc3Cl)n2)nc(-c2ccc(Cl)cc2)n1C[C@H](O)C(F)(F)F (single isomer, unassigned) [Example 68]
7.87
